# Assayed target: purified human recombinant sEH (Homo sapiens, UniProt P34913)
# Sequence (P34913 whole entry): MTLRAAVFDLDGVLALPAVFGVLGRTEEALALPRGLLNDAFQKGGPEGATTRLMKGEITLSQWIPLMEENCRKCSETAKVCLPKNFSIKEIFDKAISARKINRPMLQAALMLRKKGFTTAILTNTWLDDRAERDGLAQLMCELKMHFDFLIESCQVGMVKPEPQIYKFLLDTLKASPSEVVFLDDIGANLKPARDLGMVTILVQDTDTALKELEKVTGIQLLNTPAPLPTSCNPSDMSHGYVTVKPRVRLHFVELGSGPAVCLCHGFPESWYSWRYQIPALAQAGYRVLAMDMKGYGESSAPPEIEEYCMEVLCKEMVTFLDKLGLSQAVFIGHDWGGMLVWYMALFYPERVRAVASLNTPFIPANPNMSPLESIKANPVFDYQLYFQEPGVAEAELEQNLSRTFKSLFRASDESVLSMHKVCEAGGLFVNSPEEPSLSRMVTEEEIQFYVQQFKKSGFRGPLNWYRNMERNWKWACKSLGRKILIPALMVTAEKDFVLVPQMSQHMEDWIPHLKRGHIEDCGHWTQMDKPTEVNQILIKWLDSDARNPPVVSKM
# Format: biochemical
# Applied conditions: IC50 on human sEH incubated in sEH depleted canine liver cytosol, sEH depleted canine liver cytosol supplemented with purified human recombinant sEH
Measured attribute: IC50 (nM)
Supply the numeric figure in nM, leaving out any unit text.

Ask | Entry CS(=O)(=O)N1CCC(NC(=O)Nc2ccc(OC(F)(F)F)cc2)CC1 has what IC50?
Reply | 120

---

So I've got a bunch of compounds here, and I need their AUC values.
# Test method notes: cassette-dosing oral pharmacokinetic screening in dogs
# Applied conditions: female, Labrador retriever, dog, plasma, po, 0.3 mg/kg
Supply the numeric figure in µM·h, leaving out any unit text.

Ask | Entry CC(=O)N1CCC(NC(=O)NC2CCCCCC2)CC1 has what AUC?
Reply | 3.67

Ask | Entry CCOCCOCCOCCCCCNC(=O)NC12CC3CC(CC(C3)C1)C2 has what AUC?
Reply | 0.04

Ask | Entry COC(=O)c1ccc(NC(=O)NC23CC4CC(CC(C4)C2)C3)cc1O has what AUC?
Reply | 0.21

Ask | Entry CS(=O)(=O)N1CCC(NC(=O)Nc2ccc(OC(F)(F)F)cc2)CC1 has what AUC?
Reply | 28.3

Ask | Entry O=C(Nc1ccc(Cl)cc1)Nc1ccc(Cl)c(Cl)c1 [compound 74, triclocarban, reference compound] has what AUC?
Reply | 0.03

---

# Test method notes: cassette-dosing oral pharmacokinetic screening in dogs
# Applied conditions: female, Labrador retriever, dog, plasma, po, 0.3 mg/kg
So I've got a bunch of compounds here, and I need their half-life values.
Supply the numeric figure in min, leaving out any unit text.

Ask | Entry CCOCCOCCOCCCCCNC(=O)NC12CC3CC(CC(C3)C1)C2 [compound 3] has what half-life?
Reply | 60

Ask | Entry O=C(Nc1ccc(Cl)cc1)Nc1ccc(Cl)c(Cl)c1 [compound 74, triclocarban, reference compound] has what half-life?
Reply | 30

Ask | Entry CC(=O)N1CCC(NC(=O)NC2CCCCCC2)CC1 [compound 31] has what half-life?
Reply | 312

---

# Test method notes: physchem
# Applied conditions: 25 °C, pH 7.4, aqueous buffer, thermodynamic from solid
Measured attribute: solubility at 24 h (µg/mL)
Supply the numeric figure in µg/mL, leaving out any unit text.

Ask | Entry CC(=O)N1CCC(NC(=O)NC23CC4CC(CC(C4)C2)C3)CC1 [compound 14] has what solubility at 24 h?
Reply | 490

Source listed as paper PMC3285443.
